Exercise: state measured Emax for each of the compounds provided.
- Measured target: human muscarinic M2 receptor (Homo sapiens, UniProt P08172)
- Sequence (P08172 whole entry): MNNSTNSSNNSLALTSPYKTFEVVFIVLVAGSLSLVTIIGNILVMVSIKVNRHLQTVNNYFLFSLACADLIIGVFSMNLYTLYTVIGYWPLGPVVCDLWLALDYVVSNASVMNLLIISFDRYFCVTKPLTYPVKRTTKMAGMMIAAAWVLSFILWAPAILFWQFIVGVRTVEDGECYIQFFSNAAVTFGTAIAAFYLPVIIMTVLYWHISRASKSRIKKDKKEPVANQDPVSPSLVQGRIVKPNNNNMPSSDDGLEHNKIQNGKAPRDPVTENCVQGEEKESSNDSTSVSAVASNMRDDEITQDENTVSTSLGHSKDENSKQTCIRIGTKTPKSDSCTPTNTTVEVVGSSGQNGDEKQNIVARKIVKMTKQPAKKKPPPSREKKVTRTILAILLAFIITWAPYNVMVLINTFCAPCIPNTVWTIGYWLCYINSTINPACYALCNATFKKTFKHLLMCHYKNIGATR
- Method: Alphascreen Surefire phospho-ERK1/2 functional assay, M2
- Experimental setup: CHO, read-out: % Emax cf. ACh, M2, CHO cells stably expressing human M2; relative to ACh
Give the figure together with its unit, number first.

For this compound ( CCOC(=O)N1CCC2(CC(N3CCC([C@@H]4CCCN4C(=O)N4CCC(F)(F)C4)CC3)C2)C1 (single isomer, unassigned) [2-37 Isomer 2] ), measured Emax is 33%

For this compound ( CCOC(=O)N1CCC2(CC(N3CCC(N4CC(F)(F)C[C@@H]4C(C)O)CC3)C2)C1 (single isomer, unassigned) [2-109 Isomer 2] ), measured Emax is 9%

For this compound ( CCOC(=O)N1CCC2(CC(N3CCC([C@@H]4CCCN4CC(=O)OC)CC3)C2)C1 (single isomer, unassigned) [2-72 Isomer 2] ), measured Emax is 13%

* * *

- Measured target: human muscarinic M4 receptor (Homo sapiens)
- Construct: expressed in transfected cells
- Sequence (P08173 1-479): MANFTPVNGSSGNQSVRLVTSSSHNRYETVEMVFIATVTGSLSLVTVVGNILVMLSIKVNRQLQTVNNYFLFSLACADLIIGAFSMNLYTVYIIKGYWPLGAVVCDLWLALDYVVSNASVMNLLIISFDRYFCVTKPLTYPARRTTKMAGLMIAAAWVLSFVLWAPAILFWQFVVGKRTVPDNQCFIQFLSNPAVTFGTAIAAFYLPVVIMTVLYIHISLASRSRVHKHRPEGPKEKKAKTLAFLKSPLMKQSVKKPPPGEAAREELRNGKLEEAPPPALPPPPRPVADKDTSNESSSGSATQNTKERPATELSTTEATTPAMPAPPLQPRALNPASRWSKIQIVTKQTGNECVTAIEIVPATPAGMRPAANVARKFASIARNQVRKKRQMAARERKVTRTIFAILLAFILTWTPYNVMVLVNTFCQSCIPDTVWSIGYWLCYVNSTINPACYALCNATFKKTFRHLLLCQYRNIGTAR
- Method: Alphascreen Surefire phospho-ERK1/2 functional assay, M4
- Type: cell-based
- Experimental setup: CHO cells stably expressing human M4; phospho-ERK1/2; * = variable results; read-out: pEC50 M4 (converted)
Measure name: EC50 (nM)
Number in nM, nothing else.

For this molecule ( CCNC(=O)N1CCCC1C1CCN(C2CC3(CCN(C(=O)OCC)C3)C2)CC1 (single isomer, unassigned) [2-19 Isomer 2] ), measured EC50 is 7.94

For this molecule ( CCOC(=O)N1CCC2(CC(N3CCC(n4ccnn4)CC3)C2)C1 (single isomer, unassigned) [1-35 Isomer 2] ), measured EC50 is 200

For this molecule ( CCOC(=O)N1CCC2(CC(N3CCC([C@@H]4CCCN4c4nnc(C)o4)CC3)C2)C1 (single isomer, unassigned) [2-138 Isomer 2] ), measured EC50 is 39.8

* * *

Exercise: state measured Emax for each of the molecules provided.
- Measured target: human muscarinic M1 receptor (Homo sapiens, UniProt P11229)
- Sequence (P11229 whole entry): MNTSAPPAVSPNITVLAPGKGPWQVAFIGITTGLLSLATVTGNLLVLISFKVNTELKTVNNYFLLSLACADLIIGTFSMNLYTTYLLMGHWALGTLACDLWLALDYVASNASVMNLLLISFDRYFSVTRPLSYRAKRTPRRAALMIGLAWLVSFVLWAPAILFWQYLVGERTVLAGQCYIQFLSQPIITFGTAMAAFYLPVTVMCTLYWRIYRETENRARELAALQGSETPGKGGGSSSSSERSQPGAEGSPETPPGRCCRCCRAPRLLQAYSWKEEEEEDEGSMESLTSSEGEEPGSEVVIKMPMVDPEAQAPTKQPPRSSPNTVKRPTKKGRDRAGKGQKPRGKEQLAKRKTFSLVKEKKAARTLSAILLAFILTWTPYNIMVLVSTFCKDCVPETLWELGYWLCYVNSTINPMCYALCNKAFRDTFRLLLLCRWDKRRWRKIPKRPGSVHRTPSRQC
- Method: Alphascreen Surefire phospho-ERK1/2 functional assay, M1
- Assay type: cell-based
- Experimental setup: CHO, read-out: % Emax cf. ACh, M1, CHO cells stably expressing human M1; relative to ACh
Give the figure together with its unit, number first.

For this molecule ( CCOC(=O)N1CCC2(CC(N3CCC(c4nccs4)CC3)C2)C1 (single isomer, unassigned) [1-25 Isomer 2] ), measured Emax is 110%

For this molecule ( COC(=O)N1CCC2(CC(N3CCC(c4c(C)cnn4C)CC3)C2)C1 (single isomer, unassigned) [1-57 Isomer 2] ), measured Emax is 63%

For this molecule ( COC(=O)N1CCC2(CC(N3CCC(c4ccnn4C)CC3)C2)C1 (mixture of isomers) [1-20 Mixture of diastereomers] ), measured Emax is 62%

For this molecule ( CCOC(=O)N1CCC2(CC(N3CCC(N4C(=O)CCC4(C)C)CC3)C2)C1 (single isomer, unassigned) [2-117 Isomer 2] ), measured Emax is 99%

For this molecule ( CCOC(=O)N1CCC2(CC(N3CCC(N4CCCC4=O)CC3)C2)C1 (single isomer, unassigned) [2-111 Isomer 2] ), measured Emax is 31%

For this molecule ( CCOC(=O)N1CCC2(CC(N3CCC([C@@H]4CCCN4C(=O)CC)CC3)C2)C1 (single isomer, unassigned) [2-7 Isomer 2] ), measured Emax is 41%

For this molecule ( CCOC(=O)N1CCC2(CC(N3CCC(N4C(=O)OC[C@H]4C)CC3)C2)C1 (single isomer, unassigned) [2-118 Isomer 2] ), measured Emax is 33%

* * *

- Measured target: human muscarinic M1 receptor (Homo sapiens, UniProt P11229)
- Method: Alphascreen Surefire phospho-ERK1/2 functional assay, M1
- Assay type: cell-based
- Experimental setup: CHO, read-out: % Emax cf. ACh, M1, CHO cells stably expressing human M1; relative to ACh
Classification field: enter 1 for Emax values not below 70%, 0 for values below it.

Q) Entry CCOC(=O)N1CCC2(CC(N3CCC(N4CCCC[C@H]4C(=O)NC)CC3)C2)C1 (single isomer, unassigned) [4-18 Isomer 2] : is its Emax no less than 70%?
A) 1

Q) Entry CCOC(=O)N1CCC2(CC(N3CCC([C@@H]4CCCN4C(=O)CC(F)(F)F)CC3)C2)C1 (single isomer, unassigned) [2-53 Isomer 2] : is its Emax no less than 70%?
A) 1

Q) Entry CCOC(=O)N1CCC2(CC(N3CCC(N4CCCCC4)CC3)C2)C1 (single isomer, unassigned) [4-10 Isomer 2] : is its Emax no less than 70%?
A) 0

Q) Entry CCOC(=O)N1CCC2(CC(N3CCC(c4nccn4C)CC3)C2)C1 (single isomer, unassigned) [1-7 Isomer 2] : is its Emax no less than 70%?
A) 1

* * *

- Measured target: human muscarinic M4 receptor (Homo sapiens, UniProt P08173)
- Construct: expressed in transfected cells
- Method: Alphascreen Surefire phospho-ERK1/2 functional assay, M4
- Assay type: cell-based
- Experimental setup: CHO cells stably expressing human M4; phospho-ERK1/2; * = variable results; read-out: pEC50 M4 (converted)
Label 1 (yes) when EC50 < 100 nM; otherwise 0 (no).

Q) I wonder whether CCOC(=O)N1CCC2(CC(N3CCC(c4ccnn4CC)CC3)C2)C1 (single isomer, unassigned) [1-47 Isomer 2] has EC50 below 100 nM. Can you tell?
A) 1 (yes)

Q) I wonder whether CCOC(=O)N1CCC2(CC(N3CCC(c4ncco4)CC3)C2)C1 (single isomer, unassigned) [1-23 Isomer 2] has EC50 below 100 nM. Can you tell?
A) 1 (yes)

Q) I wonder whether CCOC(=O)N1CCC2(CC(N3CCC(C4CCCN4C(=O)CC)CC3)C2)C1 (single isomer, unassigned) [2-6 Isomer 2] has EC50 below 100 nM. Can you tell?
A) 1 (yes)

Q) I wonder whether CCOC(=O)N1CCC2(CC(N3CCC([C@@H]4CCCN4Cc4ccccc4)CC3)C2)C1 (single isomer, unassigned) [2-74 Isomer 2] has EC50 below 100 nM. Can you tell?
A) 1 (yes)

Q) I wonder whether CCOC(=O)N1CCC2(CC(N3CCC(c4nnc[nH]4)CC3)C2)C1 (single isomer, unassigned) [1-26 Isomer 2] has EC50 below 100 nM. Can you tell?
A) 0 (no)

Q) I wonder whether O=C(OCCF)N1CCC2(CC(N3CCC(c4ccc[nH]c4=O)CC3)C2)C1 (single isomer, unassigned) [3-3 Isomer 2] has EC50 below 100 nM. Can you tell?
A) 1 (yes)

Q) I wonder whether CCn1nccc1C1CCN(C2CC3(CCN(C(=O)OC)C3)C2)CC1 (single isomer, unassigned) [1-46 Isomer 2] has EC50 below 100 nM. Can you tell?
A) 0 (no)

Q) I wonder whether CCOC(=O)N1CCC2(CC(N3CCC(N4CC(F)(F)C[C@@H]4C(=O)N(C)OC)CC3)C2)C1 (single isomer, unassigned) [2-92 Isomer 2] has EC50 below 100 nM. Can you tell?
A) 1 (yes)

Q) I wonder whether CCOC(=O)N1CCC2(CC(N3CCC(n4cnnn4)CC3)C2)C1 (single isomer, unassigned) [1-62 Isomer 2] has EC50 below 100 nM. Can you tell?
A) 0 (no)

Q) I wonder whether CCOC(=O)N1CCC2(CC(N3CCC(n4cc(C)cn4)CC3)C2)C1 (single isomer, unassigned) [1-34 Isomer 1] has EC50 below 100 nM. Can you tell?
A) 0 (no)

Q) I wonder whether CCOC(=O)N1CCC2(CC(N3CCC(N4CCCNC4=O)CC3)C2)C1 (single isomer, unassigned) [4-8 Isomer 1] has EC50 below 100 nM. Can you tell?
A) 1 (yes)

Q) I wonder whether CCOC(=O)N1CCC2(CC(N3CCC([C@@H]4C[C@H](F)CN4C(=O)CC)CC3)C2)C1 (single isomer, unassigned) [2-59 Isomer 2] has EC50 below 100 nM. Can you tell?
A) 0 (no)

Q) I wonder whether CCOC(=O)N1CCC2(CC(N3CCC(N4C(=O)CC[C@H]4CC)CC3)C2)C1 (single isomer, unassigned) [2-114 Isomer 2] has EC50 below 100 nM. Can you tell?
A) 1 (yes)

Q) I wonder whether CCOC(=O)N1CCC2(CC(N3CCC(N4CC5CC5C4)CC3)C2)C1 (single isomer, unassigned) [2-105 Isomer 2] has EC50 below 100 nM. Can you tell?
A) 0 (no)

Q) I wonder whether [2H]C([2H])([2H])COC(=O)N1CCC2(CC(N3CCC(c4ccnn4C)CC3)C2)C1 (single isomer, unassigned) [1-72 Isomer 2] has EC50 below 100 nM. Can you tell?
A) 0 (no)

Q) I wonder whether CCOC(=O)N1CCC2(CC(N3CCC(c4ccnn4C)CC3)C2)C1 (single isomer, unassigned) [1-21 Isomer 2] has EC50 below 100 nM. Can you tell?
A) 1 (yes)

Q) I wonder whether COC(=O)N1CCC2(CC(N3CCC(c4ncc(Cl)n4C)CC3)C2)C1 (single isomer, unassigned) [1-13 Isomer 2] has EC50 below 100 nM. Can you tell?
A) 0 (no)

Q) I wonder whether CCOC(=O)N1CCC2(CC(N3CCC(N4CC(F)(F)C[C@H]4C(=O)N(C)C)CC3)C2)C1 (single isomer, unassigned) [2-94 Isomer 2] has EC50 below 100 nM. Can you tell?
A) 0 (no)

Q) I wonder whether CCOC(=O)N1CCC2(CC(N3CCC([C@@H]4CCCN4C(=O)CO)CC3)C2)C1 (single isomer, unassigned) [2-52 Isomer 2] has EC50 below 100 nM. Can you tell?
A) 1 (yes)

Q) I wonder whether CCOC(=O)N1CCC2(CC(N3CCC(C4CCCCN4C(=O)CC)CC3)C2)C1 (single isomer, unassigned) [4-19 Isomer 2] has EC50 below 100 nM. Can you tell?
A) 0 (no)

Q) I wonder whether CCOC(=O)N1CCC2(CC(N3CCC(C4CCCN4)CC3)C2)C1 (single isomer, unassigned) [2-1 Isomer 2] has EC50 below 100 nM. Can you tell?
A) 0 (no)

Q) I wonder whether CCOC(=O)N1CCC2(CC(N3CCC(n4cncn4)CC3)C2)C1 (single isomer, unassigned) [1-36 Isomer 2] has EC50 below 100 nM. Can you tell?
A) 0 (no)

Q) I wonder whether COC(=O)N1CCC2(CC(N3CCC([C@@H]4CCCN4C(=O)NCC(F)(F)F)CC3)C2)C1 (single isomer, unassigned) [2-40 Isomer 2] has EC50 below 100 nM. Can you tell?
A) 1 (yes)

Q) I wonder whether CCOC(=O)N1CCC2(CC(N3CCC(N4CCC(F)(F)CC4)CC3)C2)C1 (single isomer, unassigned) [4-14 Isomer 2] has EC50 below 100 nM. Can you tell?
A) 1 (yes)

Q) I wonder whether [2H]C([2H])([2H])C([2H])([2H])OC(=O)N1CCC2(CC(N3CCC(c4ccnn4C)CC3)C2)C1 (single isomer, unassigned) [1-73 Isomer 2] has EC50 below 100 nM. Can you tell?
A) 0 (no)
